- assay_name: Cellular viability qHTS for adrenocortical cancer (ACC) cell line NCI-H295R (AID 1963990); also: nearly all actives have a fitted effect of over 60% in size
- measurement_context: CellTiter-Glo ATP luminescence, 48 h; series mostly up to 46.1 µM
Inconclusive results are not listed. The source made the active and inactive calls. Calls follow the shape of the dose curve; as a rule, active = well fitted cell-killing curve with a large enough effect; inconclusive = small, poorly fitted or top-dose-only effect; inactive = flat fitted curve, though single readings scatter.
Tick one outcome: class 1 (active), class 0 (inactive)

Returns: the outcome recorded for C[N+]12CCC(CC1)C(OC(=O)C(O)(c1ccccc1)c1ccccc1)C2 (stereo unspecified) in this assay. class 0

Returns: the outcome recorded for "C[C@]12CC[C@@H]3c4ccc(O)cc4CC[C@H]3[C@@H]1CC[C@@H]2O" in this assay. class 1

Returns: the outcome recorded for "C[C@@]12C(=O)OC(=O)[C@]1(C)C1CCC2O1" in this assay. class 1

Returns: the outcome recorded for "CC1(C)NC(=O)N(c2ccc([N+](=O)[O-])c(C(F)(F)F)c2)C1=O" in this assay. class 0

Returns: the outcome recorded for "Nc1ccc(C(=O)N2CC3CC(CN(Cc4ccccc4)C3)C2)cc1" in this assay. class 0

Returns: the outcome recorded for "O=c1cc(O)c(Cl)c[nH]1" in this assay. class 0

Measured values drawn from PubChem BioAssay (NCATS) for this set.
